experiment: NCI Yeast Anticancer Drug Screen. Data for the mlh1 strain (AID 171);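 also: 0% = growth of vehicle-treated control cultures of the same strain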; details: S. cerevisiae mlh1 strain growth inhibition; at 33.0 µM; hits give high values
The panel holds about 79,000 compounds, 15% with a hit somewhere; the sample as a whole holds those more often.
Form field: growth inhibition (one value per entry).
Reply numerically in %, unit not repeated.

[N-]=[N+]=NC(c1ccccc1)(c1ccccc1)c1ccccc1    42

Exam item: Quick one: growth inhibition of `c1ccc2c(c1)ccc1c3ccncc3ccc21` ?
Marked response: 99

Exam item: Also, `Cc1ccc(Nc2c3c(c(C#N)c4nc5ccccc5n24)CCCC3)cc1` please.
Marked response: 78

Exam item: Also, CCOC(=O)C(NC(=O)CC)(N1CCN(c2cc3c(cc2F)c(=O)c(C(=O)O)cn3C2CC2)CC1)C(F)(F)F (stereo not given) please.
Marked response: 16

Exam item: Also, `O=Nn1c2ccccc2c2cc([N+](=O)[O-])ccc21` please.
Marked response: 48

Exam item: Also, `CC(=O)N1C(=O)/C(=C\C(=O)c2ccc(Cl)cc2)c2ccccc21` please.
Marked response: 78

Exam item: Also, `CN(C)CCN1C(=O)c2cccc3cc([N+](=O)[O-])cc(c23)C1=O` please.
Marked response: 0

Exam item: Also, `CC(C)(C)[OH+][O-].[O-]c1ccc(Cl)cc1C=Nc1ccc(Cl)cc1[O-].[O]=[V]` please.
Marked response: 15

Exam item: Also, `S=C1SCN(CCc2ccccc2)CN1CCc1ccccc1` please.
Marked response: 40

Exam item: Also, CC1C(C#N)(C#N)C(C#N)=C(N)C1(Cl)[N+](=O)[O-] (stereo not given) please.
Marked response: 68

---

test: NCI Yeast Anticancer Drug Screen. Data for the sgs1 mgt1 strain (AID 161);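 also: 0% = growth of cultures given vehicle only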; details: S. cerevisiae sgs1 mgt1 strain, at 50.0 µM, hits give high values
This is part of a sample that, as a whole, favours compounds with a hit. Of some 79,000 tested, about 15% had one in any assay.
MEASUREMENT TYPE: growth inhibition (%)
Reply numerically in %, unit not repeated.

# example entries with known answers
C/C(=N\NC(=S)NC1CCCC1)c1ccccn1    92
Cc1cc(C)c(N2C(=O)CC(Sc3ccccc3N)C2=O)c(C)c1 (stereo unspecified)    42.9
O=S(=O)(N/N=C/c1cccc(Cl)c1)c1ccccc1    63.7

Exam item: Quick one: growth inhibition of `CCCCC(=O)c1c(O)nc2sccn2c1=O` ?
Marked response: 89.2

Exam item: Also, `O=C(Nc1ccc2c(c1)Cc1c-2ccc([N+](=O)[O-])c1F)C(F)(F)F` please.
Marked response: -3.05

Exam item: Also, Cc1ccc(S(=O)(=O)Nc2ccc3c(c2)C(O)c2ccccc2-3)cc1 (stereo unspecified) please.
Marked response: 89.5

---

experiment: NCI Yeast Anticancer Drug Screen. Data for the bub3 strain (AID 167); conditions: S. cerevisiae bub3 mutant strain, at 33.0 µM
Compounds without any hit were thinned out: in the full panel of roughly 79,000, 15% have a hit. Activity calls are given as the source filed them. Cut-off read from the data, not from the text of the source: active = growth inhibition above about 70%; inactive = the rest.
Result category, one only: active, inactive

Illustrative cases are given below, each with its answer.
O=C1c2ccccc2C(=O)c2cc(S(=O)(=O)Nc3ccccc3)ccc21    inactive
CCOC(=O)[C@]1(Br)CC[C@@]1(Br)C(=O)OCC    active
Cc1c(-c2ccccc2)[nH]c2ccccc12    active

Exam item: Hi, sorry to bother you, what did the test record for `CCC(=O)Oc1ccc(/C=N/NC(N)=S)nc1` ?
Marked response: inactive

Exam item: Also, `On1cnc(=S)c2[nH]cnc21` please.
Marked response: inactive

Exam item: Also, `Cc1onc(-c2ccccc2Cl)c1C1=N/C(=C/c2cc(Cl)cc(Cl)c2O)C(=O)O1` please.
Marked response: inactive
